Quick reference for pKd among some binders
# Target entity: T1, FOXM1B DBD WT (GST fusion) (UniProt Q08050-2 235-327)
# T1 sequence: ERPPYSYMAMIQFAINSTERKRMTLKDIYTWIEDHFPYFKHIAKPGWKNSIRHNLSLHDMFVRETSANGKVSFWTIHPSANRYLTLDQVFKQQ
# Assay info: fluorescence polarization; FP: 50 mM Tris-HCl pH 7.5, 5 mM MgCl2, 1 mM DTT, 2% glycerol; protein 80 nM-5 uM; temperature not stated
# Conditions: protein: recombinant; tags: GST; label: 5' 6FAM on top strand; blunt
pKd: −log10 of the molar value.

Binder	pKd
HP1BP3 16-mer (dsDNA) DNA 1: CCTCAGCCAATCGGGG DNA 2: CCCCGATTGGCTGAGG	6.31
FKH consensus 16-mer (dsDNA) DNA 1: AAACAAACAAACAATC DNA 2: GATTGTTTGTTTGTTT	6.65
MYC P2 TATA box 16-mer (dsDNA) DNA 1: TGAGTATAAAAGCCGG DNA 2: CCGGCTTTTATACTCA	6.75
CCNB2 16-mer (dsDNA) DNA 1: ACGCGGTATTTGAATC DNA 2: GATTCAAATACCGCGT	6.36
